biological target: IκBα-kinase complex (Homo sapiens, UniProt O14920+O15111); construct: IKBα kinase complex was prepared by first diluting 10 mL of HeLa S3 cell-extracts S100 fraction; endogenous in cells; test: biochemical; conditions: activated kinase complex from HeLa S3 cell-extracts S100 fraction; 30 minutes pre-incubation at 25°C; biotinylated peptide substrate; read-out: IkB-kinase IC50
Sequence (O14920 whole entry): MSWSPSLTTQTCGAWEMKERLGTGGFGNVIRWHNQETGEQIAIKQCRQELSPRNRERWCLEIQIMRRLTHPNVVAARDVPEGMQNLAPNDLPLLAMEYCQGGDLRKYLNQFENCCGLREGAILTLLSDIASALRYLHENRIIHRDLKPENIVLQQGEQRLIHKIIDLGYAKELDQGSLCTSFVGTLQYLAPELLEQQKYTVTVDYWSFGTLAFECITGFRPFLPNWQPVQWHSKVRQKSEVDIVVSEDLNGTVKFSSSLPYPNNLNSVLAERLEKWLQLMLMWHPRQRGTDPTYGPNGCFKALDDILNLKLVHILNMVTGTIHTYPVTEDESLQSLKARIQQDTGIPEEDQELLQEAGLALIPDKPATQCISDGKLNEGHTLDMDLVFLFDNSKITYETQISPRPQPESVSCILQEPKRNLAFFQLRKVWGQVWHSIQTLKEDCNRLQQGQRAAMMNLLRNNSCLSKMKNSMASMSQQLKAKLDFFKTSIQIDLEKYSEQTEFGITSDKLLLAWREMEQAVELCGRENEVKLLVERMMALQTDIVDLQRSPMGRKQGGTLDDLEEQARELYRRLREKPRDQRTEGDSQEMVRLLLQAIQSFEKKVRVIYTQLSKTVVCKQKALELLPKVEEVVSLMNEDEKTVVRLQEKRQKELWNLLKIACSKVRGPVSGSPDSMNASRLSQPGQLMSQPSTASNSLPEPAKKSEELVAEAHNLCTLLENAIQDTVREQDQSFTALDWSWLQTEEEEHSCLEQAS
Sequence (O15111 whole entry): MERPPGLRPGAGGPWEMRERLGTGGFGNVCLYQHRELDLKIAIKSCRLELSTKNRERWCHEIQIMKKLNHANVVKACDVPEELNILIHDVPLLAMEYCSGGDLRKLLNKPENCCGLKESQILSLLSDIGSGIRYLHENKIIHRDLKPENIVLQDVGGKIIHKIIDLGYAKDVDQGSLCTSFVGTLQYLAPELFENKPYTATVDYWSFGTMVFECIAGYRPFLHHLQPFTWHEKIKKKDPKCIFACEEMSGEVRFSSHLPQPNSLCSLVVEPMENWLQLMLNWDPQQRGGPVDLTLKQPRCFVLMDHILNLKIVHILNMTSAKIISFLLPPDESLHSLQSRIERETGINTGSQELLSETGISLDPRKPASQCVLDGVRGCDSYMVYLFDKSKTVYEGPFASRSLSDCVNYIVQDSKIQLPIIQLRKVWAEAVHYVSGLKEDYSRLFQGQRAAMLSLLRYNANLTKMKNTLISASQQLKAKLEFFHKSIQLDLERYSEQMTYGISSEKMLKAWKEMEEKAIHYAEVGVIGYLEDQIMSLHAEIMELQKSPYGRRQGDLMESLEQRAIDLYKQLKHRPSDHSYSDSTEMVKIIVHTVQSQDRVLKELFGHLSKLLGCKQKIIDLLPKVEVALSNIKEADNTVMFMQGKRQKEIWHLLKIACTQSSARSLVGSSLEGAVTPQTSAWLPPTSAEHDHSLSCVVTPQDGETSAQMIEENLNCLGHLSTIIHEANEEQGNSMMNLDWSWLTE
Sequence (Q9Y6K9 whole entry partner): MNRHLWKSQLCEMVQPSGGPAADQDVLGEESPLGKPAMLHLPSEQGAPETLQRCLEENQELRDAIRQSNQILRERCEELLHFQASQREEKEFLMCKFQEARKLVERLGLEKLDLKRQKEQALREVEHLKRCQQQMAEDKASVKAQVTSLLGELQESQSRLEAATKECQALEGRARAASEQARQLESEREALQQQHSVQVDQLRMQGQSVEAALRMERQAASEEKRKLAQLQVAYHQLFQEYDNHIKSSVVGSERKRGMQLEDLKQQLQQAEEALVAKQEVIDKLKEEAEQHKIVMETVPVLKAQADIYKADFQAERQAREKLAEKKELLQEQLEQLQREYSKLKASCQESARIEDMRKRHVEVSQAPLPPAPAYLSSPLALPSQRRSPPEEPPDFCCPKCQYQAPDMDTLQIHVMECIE
Where a name gives a salt, the structure may show the parent alone.
Hi! Just check whether IC50 is below 1 µM. Below gives Y, equal or above gives N.

Nn1c2cnccc2c2ccc(Cl)cc21 [Example 15, 9-amino-7-chloro-β-carboline] | Y
COc1ccc2c(c1)[nH]c1c(C)nccc12 [Example 35, 7-methoxy-1-methyl-β - carboline] | N
COc1ccc2c(c1)[nH]c1cnccc12 [Example 30, 7-methoxy-β - carboline] | N
CC(=O)c1nccc2c1[nH]c1cc(Cl)ccc12 [Example 13, 1-acetyl-7-chloro-β - carboline] | Y
O=C(O)c1ccc2c(c1)[nH]c1cnccc12 [Example 7, 7-carboxy-β-carboline trifluoroacetat] | N
FC(F)(F)c1ccc2c(c1)[nH]c1cnccc12 [Example 42, 7-trifluoromethyl-β-carboline] | Y
Brc1ccc2c3ccncc3n(Br)c2c1 [Example 8, 7,9-dibromo-β - carboline hydrochloride] | Y
CC(C)c1ccc2c(c1)[nH]c1cnccc12 [Example 4, 7-isopropyl-β -carboline hydrochloride] | N
O=[N+]([O-])n1c2cnccc2c2ccc(Cl)cc21 [Example 14, 7-chloro-9-nitro-β-carboline] | N
Cn1ccc2c3cccc(O)c3nc-2c1 [Example 23, 8-hydroxy-2-methyl-β-carboline] | N

input: is_below(IC50, 1 µM) for CC(=O)c1nccc2c1[nH]c1cc(Br)ccc12 [Example 2, 1-acetyl-7-bromo-β-carboline] ?
output: Y

input: Does Oc1nccc2c1[nH]c1cc(C(F)(F)F)ccc12 [Example 41, 1-hydroxy-7-trifluoromethyl-β-carboline] have IC50 strictly under 1 µM?
output: N

input: Please check: IC50 for Clc1ccc2c3ccncc3n(Cl)c2c1 [Example 9, 7,9-dichloro-β-carboline] , strictly under 1 µM or not?
output: Y

input: Regarding O=[N+]([O-])c1ccc2c(c1)[nH]c1cnccc12 [Example 6, 7-nitro-β-carboline hydrochloride] , kindly confirm whether its IC50 is beneath 1 µM.
output: N

----------
target: IκBα-kinase complex (Homo sapiens, UniProt O14920+O15111); construct: IKBα kinase complex was prepared by first diluting 10 mL of HeLa S3 cell-extracts S100 fraction; endogenous in cells; assay: biochemical; settings: activated kinase complex from HeLa S3 cell-extracts S100 fraction; 30 minutes pre-incubation at 25°C; biotinylated peptide substrate; read-out: IkB-kinase IC50
readout.kind: pIC50
On this scale, pIC50 is minus log10 of a concentration expressed in M (mol/L).

N#Cc1ccc2c(c1)[nH]c1cnccc12 | 6.00
Fc1c(Cl)ccc2c1[nH]c1cnccc12 | 6.00

Consider the record given below.
input: Tell me measured pIC50 for Fc1ccc2c(c1)[nH]c1cnccc12 please.
output: 6.00
